This collection of values is drawn from patent US11590116B2.

Recorded Ki by entry
subject-of-test: recombinant human ALK5 (TGF-βR1) protein (Homo sapiens, UniProt P36897)
Construct: purchased Life Technologies PR9075A
Sequence (P36897 34-503): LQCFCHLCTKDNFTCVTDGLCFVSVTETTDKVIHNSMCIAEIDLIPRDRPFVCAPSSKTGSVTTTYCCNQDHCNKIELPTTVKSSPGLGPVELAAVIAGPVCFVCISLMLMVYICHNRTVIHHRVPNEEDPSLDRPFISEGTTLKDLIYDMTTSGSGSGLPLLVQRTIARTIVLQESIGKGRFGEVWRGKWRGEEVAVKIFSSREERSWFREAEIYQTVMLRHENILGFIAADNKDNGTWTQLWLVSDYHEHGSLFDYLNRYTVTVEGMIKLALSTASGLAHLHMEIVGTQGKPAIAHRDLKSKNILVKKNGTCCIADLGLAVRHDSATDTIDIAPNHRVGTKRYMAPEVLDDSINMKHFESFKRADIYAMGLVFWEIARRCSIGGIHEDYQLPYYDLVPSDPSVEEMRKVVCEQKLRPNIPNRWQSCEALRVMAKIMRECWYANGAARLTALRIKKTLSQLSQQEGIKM
test-details: Biochemical ALK5 (TGF-βR1) assay to measure pKi (LANCE Ultra ULight kinase assay)
test-context: apparent pKi from pIC50 by Cheng-Prusoff, read-out: ALK5 pKi (converted)

INSERT INTO measurements (molecule, experimental_result) VALUES
  ('CNCCn1cc(-c2cnc3ccc(-c4c(-c5ccc(F)c(C)n5)nc5ccccn45)cc3c2)cn1', '0.0398 to 0.316 nM'),
  ('Cc1cccc(-c2[nH]cnc2-c2ccc3ncc(-c4cnc(C(=O)OCC5CNC5)nc4)cc3c2)n1', '0.398 to 3.16 nM'),
  ('Cc1cccc(-c2n[nH]cc2-c2ccc3ncc(-c4c(C)noc4C)cc3n2)n1', '0.398 to 3.16 nM');

Form field: reported Ki of Cc1cccc(-c2nc3ccccn3c2-c2ccc3ncc(N4CCC(N(C)C)C4)cc3c2)n1 (stereo not shown) < 0.0316 nM
